# Target system: NLRP3 (Homo sapiens, UniProt Q96P20)
# Sequence (Q96P20 whole entry): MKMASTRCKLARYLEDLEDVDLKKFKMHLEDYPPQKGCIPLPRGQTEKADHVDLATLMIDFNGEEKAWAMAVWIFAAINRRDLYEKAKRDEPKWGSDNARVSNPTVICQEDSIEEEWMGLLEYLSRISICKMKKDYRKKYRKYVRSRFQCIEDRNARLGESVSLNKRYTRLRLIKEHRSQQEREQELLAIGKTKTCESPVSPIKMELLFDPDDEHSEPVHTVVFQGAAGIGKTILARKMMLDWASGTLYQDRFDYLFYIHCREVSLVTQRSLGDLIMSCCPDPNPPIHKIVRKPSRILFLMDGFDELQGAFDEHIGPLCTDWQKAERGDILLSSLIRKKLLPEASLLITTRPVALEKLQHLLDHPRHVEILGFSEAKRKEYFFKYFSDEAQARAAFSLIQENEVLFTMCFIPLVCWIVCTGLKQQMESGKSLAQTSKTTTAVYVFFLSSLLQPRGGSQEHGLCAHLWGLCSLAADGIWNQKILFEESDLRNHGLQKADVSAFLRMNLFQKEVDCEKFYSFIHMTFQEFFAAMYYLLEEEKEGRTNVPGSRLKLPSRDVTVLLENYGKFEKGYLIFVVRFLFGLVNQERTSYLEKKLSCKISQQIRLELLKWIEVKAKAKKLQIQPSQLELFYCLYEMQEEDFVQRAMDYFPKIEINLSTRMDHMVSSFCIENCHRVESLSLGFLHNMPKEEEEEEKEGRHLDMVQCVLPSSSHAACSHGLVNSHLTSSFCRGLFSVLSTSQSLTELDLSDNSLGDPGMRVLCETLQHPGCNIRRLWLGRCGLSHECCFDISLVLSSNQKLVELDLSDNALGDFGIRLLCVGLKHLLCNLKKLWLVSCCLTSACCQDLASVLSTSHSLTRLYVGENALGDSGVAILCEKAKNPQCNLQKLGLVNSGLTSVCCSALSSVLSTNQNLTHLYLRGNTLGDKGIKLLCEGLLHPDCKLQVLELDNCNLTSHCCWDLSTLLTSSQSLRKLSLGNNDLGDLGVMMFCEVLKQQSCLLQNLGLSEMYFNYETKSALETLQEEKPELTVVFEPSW
# Assay notes: THP-1 cells pyroptosis assay (LPS priming, nigericin, resazurin read-out)
# Type: cell-based
# Design: Seed THP-1 cells (25,000 cells/well) containing 1.0 μg/ml LPS; host or cells: THP-1 cells, LPS-primed, nigericin-stimulated
# Test settings: 1 μg/ml LPS, 3 hours compound, 5 μM nigericin 1 hr
Attribute measured: IC50 (nM)
Reply with just the number (in nM).

> print(dat)
                                chem.smiles  attribute.measured  reading.unit  reported.measurement
1  Cc1cc(N[C@@H]2CCCN(C)C2)nnc1-c1ccc2c(F)c[nH]c2c1                IC50            nM                   4.9
2  CCN1CCC[C@@H](Nc2cc(C)c(-c3ccc4c(C#N)c[nH]c4c3)nn2)C1                IC50            nM                   133
3  CCN1CCC[C@@H](Nc2cc(C)c(-c3ccc4cc[nH]c4c3)nn2)C1                IC50            nM                   5.1
4  CCN1CCC[C@@H](Nc2cc(C(F)(F)F)c(-c3ccc4c(F)c[nH]c4c3)nn2)C1                IC50            nM                   5.1

Now consider a different molecule.
Specify measured IC50 for `CCN1CCC[C@@H](Nc2nnc(-c3ccc4c(F)c[nH]c4c3)c(C)n2)C1` .
55.9
